System: Reticulocyte
Experiment: Binding affinity to wild-type Rous sarcoma virus frameshift element RNA pseudoknot sequence transfected with Renilla/Firefly luciferase in rabbit reticulocyte lysate assessed as translation by measuring ratio of renilla luminescence by dual-luciferase reporter assay
Format: subcellular
Below, each of the molecules is paired with its reported Ratio value.
Reply: number alone, nothing else.

The following molecules have reported results that may help.
INSERT INTO assay_data (molecule, tested_system, recorded_number) VALUES
  ('COc1ccc(-c2nc(NCCN3CCOCC3)c3ccccc3n2)cc1', 'Reticulocyte', 0.77),
  ('COc1ccc(-c2nc(NCCN3CCOCC3)c3cc(OC)ccc3n2)cc1', 'Reticulocyte', 0.82);

IN: Consider the molecule CCNCC1CCN(c2c(F)cc3c(=O)c(C(=O)O)cn(CC)c3c2F)C1 (centres undefined) and give its recorded Ratio.
OUT: 0.7

IN: Consider the molecule CCOC(=O)c1ccccc1NC(=O)N1CCCN(Cc2csc(C)n2)CC1 and give its recorded Ratio.
OUT: 0.96
